Values compiled from ChEMBL document CHEMBL4340540.

test: Half life in rat at 1 mg/kg, iv; format: ADME, organism-based; details: in vivo
# key: entry, value: half-life
Reply with the number and its unit after it.

>  <compound>
COc1nc2ccc([C@@](O)(c3ccc(C(F)(F)F)nc3)c3cncn3C)cc2c(Cl)c1CN1CCC(C(F)(F)F)CC1

>  <result>
9.1 h

$$$$

We next turn to a different compound, shown below.
Suppose we examine the compound COc1nc2ccc(C(O)(c3ccc(Cl)cc3)c3cncn3C)cc2c(Cl)c1Cc1ccc(-n2cccn2)cc1 (configuration not stated) ; what half-life value has been reported?
5.6 h

* * *

assay: Equilibrium aqueous solubility of the compound at pH 2; type: physicochemical
measure name: solubility thermodynamic

Below, each entry is followed by its recorded solubility thermodynamic result.
>  <molecule>
COc1nc2ccc(C(O)(c3cnc(C)n3C)c3cnc(C)n3C)cc2c(Cl)c1CN1CCC(C(F)(F)F)CC1

>  <solubility thermodynamic>
> 400 µM

$$$$
>  <molecule>
COc1nc2ccc(C(O)(c3ccc(C)nc3C)c3cnnn3C)cc2c(Cl)c1CC1CCC(F)(F)CC1 (centres undefined)

>  <solubility thermodynamic>
> 400 µM

$$$$
>  <molecule>
COc1nc2ccc(C(O)(c3ccc(C)nc3C)c3cnnn3C)cc2c(Cl)c1CN1CCC(C(F)(F)F)CC1 (centres undefined)

>  <solubility thermodynamic>
> 400 µM

$$$$

We next turn to a different molecule, shown below.
Suppose we examine the molecule COc1nc2ccc(C(O)(c3ccc(C)nc3C)c3cnnn3C)cc2c(Cl)c1CC1CCS(=O)(=O)CC1 (centres undefined) ; what solubility thermodynamic value has been reported?
387 µM

* * *

assay: in vitro; settings: human, liver microsomes
Description: Extraction ratio in human liver microsomes
measure name: hepatic extraction ratio
In your answer, state the number alone without any accompanying words.

>  <compound>
COc1nc2ccc(C(O)(c3ccc(C)nc3C)c3cnnn3C)cc2c(Cl)c1CC1CCS(=O)(=O)CC1 (configuration not stated)

>  <hepatic extraction ratio>
0.9

$$$$

We next turn to a different compound, shown below.
Suppose we examine the compound COc1nc2ccc(C(O)(c3ccc(C)nc3C)c3cnnn3C)cc2c(Cl)c1C(=O)N1CCC(C(F)(F)F)CC1 (configuration not stated) ; what hepatic extraction ratio value has been reported?
0.8

* * *

assay: Equilibrium aqueous solubility of the compound at pH 7; assay type: physicochemical
measure name: solubility thermodynamic

Below, each entry is followed by its recorded solubility thermodynamic result.
>  <compound>
COc1nc2ccc(C(O)(c3ccc(C)nc3C)c3cnnn3C)cc2c(Cl)c1OCc1nccs1 (stereo not drawn)

>  <solubility thermodynamic>
< 4 µM

$$$$
>  <compound>
COc1nc2ccc(C(O)(c3ccc(C)nc3C)c3cnnn3C)cc2c(Cl)c1OC1CCOCC1 (stereo not drawn)

>  <solubility thermodynamic>
41 µM

$$$$
>  <compound>
COc1nc2ccc(C(O)(c3cnnn3C)c3cnc(C)n3C)cc2c(Cl)c1CN1CCC(C(F)(F)F)CC1 (stereo not drawn)

>  <solubility thermodynamic>
31 µM

$$$$
>  <compound>
COc1nc2ccc(C(O)(c3ccc(C)nc3C)c3cnnn3C)cc2c(Cl)c1CN1CCC(C(F)(F)F)CC1 (stereo not drawn)

>  <solubility thermodynamic>
< 1 µM

$$$$
>  <compound>
COc1nc2ccc(C(O)(c3ccc(C)nc3C)c3cnnn3C)cc2c(Cl)c1CN1CCC(F)CC1 (stereo not drawn)

>  <solubility thermodynamic>
100 µM

$$$$

Suppose we examine the compound COc1nc2ccc(C(O)(c3ccc(C)nc3C)c3cnnn3C)cc2c(Cl)c1OCC1CC1(F)F (stereo not drawn) ; what solubility thermodynamic value has been reported?
< 4 µM

What do you get for `COc1nc2ccc(C(O)(c3cnc(C)n3C)c3cnc(C)n3C)cc2c(Cl)c1CN1CCC(C(F)(F)F)CC1` ?
4 to 7 µM

What do you get for `COc1nc2ccc([C@@](O)(c3ccc(C(F)(F)F)nc3)c3cncn3C)cc2c(Cl)c1CN1CCC(C(F)(F)F)CC1` ?
< 1 µM
